- assay.text: chemical genetic growth profiling, strain panel (AID 1159580);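 also: tested at 20 µM; growth read once vehicle control cultures reached saturation at 30 °C; 1 = growth at the plate median or of vehicle wells; lower values mean less growth of the strain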
- test.conditions: S. cerevisiae deletion strains, growth OD, locus YNL067W, strain RPL9B, active compounds read low
Hit rate of the full screen: of about 5,500 compounds, about 2,000 (36%) were called active. About 18% were inconclusive and are not listed. Some of the results follow.
Note to self: normalized growth under 1 means class 1, ties and anything higher get class 0.

Please review the following examples before continuing.
{"compound": "O=C1C(O)=C(O)C(=O)C(O)=C1O", "answer.label": "class 1"}
{"compound": "CC(=O)O[C@H]1CC[C@@]2(C)C(CC[C@]3(C)C2CC=C2C4CC(C)(C)CC[C@]4(C)CC[C@]23C)C1(C)C (some centres not stated)", "answer.label": "class 0"}
{"compound": "N[C@H](C(=O)O)[C@@H]1CC(Cl)=NO1", "answer.label": "class 1"}
{"compound": "CC(=O)OC1CC(OC(C)=O)C2(C)C(CC(OC(C)=O)C3(C)C4=CC(=O)OC(=O)C4(C)CCC32)C1(C)C (configuration not stated)", "answer.label": "class 0"}

Is normalized growth strictly under 1 for the entry `O=C(COc1ccc(Cl)cc1)N1CCN(Cc2ccc3c(c2)OCO3)CC1` ?
class 1

Lab note: normalized growth threshold 1. Does this compound come in strictly under it? `C/C=C(/C)C(=O)O[C@H]1CC[C@@]2(C)[C@@H]3CC[C@H]4[C@]5(O)C[C@H](O)[C@@]6(O)[C@@H](CN7C[C@@H](C)CC[C@H]7[C@@]6(C)O)[C@]5(O)C[C@@]42O[C@]13O`
class 0

normalized growth strictly < 1 for this compound? `CC(C)(C#N)O[C@@H]1O[C@H](CO)[C@@H](O)[C@H](O)[C@H]1O`
class 0

A record lists `NC12CC3CC(CC(C3)C1)C2` . Is its normalized growth below 1?
class 0

Record N#CC(O[C@@H]1O[C@H](CO[C@@H]2O[C@H](CO)[C@@H](O)[C@H](O)[C@H]2O)[C@@H](O)[C@H](O)[C@H]1O)c1ccccc1 (some centres not stated) : is its normalized growth strictly below 1?
class 0

====

- assay.text: chemical genetic growth profiling, strain panel (AID 1159580)
- test.conditions: S. cerevisiae deletion strains, growth OD, locus YLR258W, strain gsy2
The whole screen tested about 5,500 compounds, of which about 2,000 (36%) were called active. Another 18% or so got no clear call; they are omitted. Rule as the data show it: active = normalized growth mostly below about 0.91 (no sharp cut-off); inconclusive = no clear call, values can overlap the other calls; inactive = mostly above about 0.92. Some of the results follow.
Give one outcome, nothing more. List: active, inactive

Write down the call the test reported for this compound. Item: `CC(=O)NCc1c(I)c(NC(C)=O)c(I)c(C(=O)O)c1I`
inactive

Which outcome was entered for the compound `Nc1c2c(nc3ccccc13)CCCC2` in this test?
inactive

# lookup: test call for CO[C@@]12[C@@H]3NC3CN1C1=C(C(=O)C(N)=C(C)C1=O)[C@@H]2COC(N)=O (stereo partly specified)
inactive

Which result was noted for this compound in the test: `COc1cccc2c1C(=O)c1c(O)c3c(c(O)c1C2=O)C[C@@](O)(C(C)=O)C[C@@H]3O[C@H]1C[C@H](N)[C@H](O)[C@H](C)O1`
inactive

I'd appreciate the recorded outcome for `NC(N)=N/N=C/c1c(Cl)cccc1Cl` from this test.
inactive

What call does the record list for `N=C(N)c1ccc(OCCCCCOc2ccc(C(=N)N)cc2)cc1` ?
inactive

Given `NNc1nncc2ccccc12` , state the outcome it received in this test.
inactive

Tell me the recorded outcome of this test for `COc1ccc2[nH]cc(CCN)c2c1` .
inactive

Write down the call the test reported for this compound. Item: Nc1c2ccccc2nc2ccccc12 (tested in a mixture with another compound)
active

Test call, this compound: `COc1cc(C(=O)NCCCCCC(=O)O)cc(OC)c1OC`
inactive

Hi, do you know how `Nc1c2ccccc2nc2ccccc12` came out in this test?
active

====

Quick list: normalized growth per entry.
- assay.text: chemical genetic growth profiling, strain panel (AID 1159580)
- test.conditions: S. cerevisiae deletion strains, growth OD, locus YOR106W, strain vam3, active compounds read low
The whole screen tested about 5,500 compounds, of which about 2,000 (36%) were called active. Another 18% or so got no clear call; they are omitted. The list shows a part of the results.
When you answer, write just the number.

Some solved cases for reference:
{"compound": "CC(C)(C#N)O[C@@H]1O[C@H](CO)[C@@H](O)[C@H](O)[C@H]1O", "result.number": 1.04}
{"compound": "Nc1ccccc1C(=O)CC(N)C(=O)O (stereo not given)", "result.number": 1.02}
{"compound": "N#CC(O[C@@H]1O[C@H](CO[C@@H]2O[C@H](CO)[C@@H](O)[C@H](O)[C@H]2O)[C@@H](O)[C@H](O)[C@H]1O)c1ccccc1 (stereo not given in full)", "result.number": 0.989}

// fetch normalized growth given entry CC(C)CC(N(C)C)C1(c2ccc(Cl)cc2)CCC1 (stereo not given)
1.03

Return reported normalized growth. Input compound: CCC(C)C(NC)C(=O)O (stereo not given)
1.02

====

Overview of reported normalized growth across a group of molecules:
- assay.text: chemical genetic growth profiling, strain panel (AID 1159580);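 also: tested at 20 µM; growth read once vehicle control cultures reached saturation at 30 °C; 1 = growth at the plate median or of vehicle wells; lower values mean less growth of the strain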
- test.conditions: S. cerevisiae deletion strains, growth OD, locus YBR229C, strain ROT2, active compounds read low
About 2,000 (36%) of roughly 5,500 compounds were called active. Inconclusive results (about 18%) are left out. The list shows a part of the results.
Could you keep your reply to the number by itself?

{"molecule": "NC12CC3CC(CC(C3)C1)C2", "result.number": 1}
{"molecule": "O=c1cc(CO)occ1O", "result.number": 1}
{"molecule": "O=C1ON=C(c2ccccc2)/C1=C/c1ccc(Cl)cc1", "result.number": 0.145}
{"molecule": "FC(F)(F)c1cnc(N2CCN(C(=S)Nc3ccccc3)CC2)c(Cl)c1", "result.number": 1.01}

Return normalized growth (reported value) for this molecule: `Cc1c(Br)sc2ccc(Cl)cc12`
0.936

Dear colleague, please send me the reported normalized growth for CCc1cc2c(cc1C(=O)CC1(O)C(=O)Nc3ccc(Br)cc31)C(C)(C)CCC2(C)C (centres undefined) when you can.
1.01

Using known records, supply normalized growth for C=C1SC(=Nc2cccc(OC)c2)N(C(=O)C(c2ccccc2)C2CCCC2)C1(C)C (centres undefined)
0.971

Look up and state reported normalized growth for `O=C1c2c(O)cccc2Cc2cccc(O)c21`
0.998

Output measured normalized growth for this item: `CNCc1ccccc1`
0.965

Quick one: give measured normalized growth for `COC1=C[C@@H]2[C@@H]3Cc4ccc(OC)c(O)c4[C@]2(CCN3C)CC1=O`
0.961

====

- assay.text: chemical genetic growth profiling, strain panel (AID 1159580);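 also: tested at 20 µM; growth read once vehicle control cultures reached saturation at 30 °C; 1 = growth at the plate median or of vehicle wells; lower values mean less growth of the strain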
- test.conditions: S. cerevisiae deletion strains, growth OD, locus YNL250W, strain rad50, active compounds read low
Screen size: about 5,500 compounds; about 2,000 (36%) were called active. Roughly 18% stayed inconclusive and do not appear here. The list shows a part of the results.
Items are presented alongside their recorded normalized growth.
Lab note: write the figure by itself, no unit.

Worked examples, 2 molecules total:
{"molecule": "CC(=O)OC1CC(OC(C)=O)C2(C)C(CC(OC(C)=O)C3(C)C4=CC(=O)OC(=O)C4(C)CCC32)C1(C)C (stereo not drawn)", "normalized growth": 1.02}
{"molecule": "C[C@@H]1OC(O[C@H]2[C@H](O)[C@@H](O)[C@H](OC[C@H]3O[C@@H](OC(=O)[C@]45CCC(C)(C)CC4C4=CCC6[C@@]7(C)CC[C@H](OC8OC[C@H](O)[C@H](O)[C@H]8OC8O[C@@H](C)[C@H](O)[C@@H](O)[C@H]8O)[C@@](C)(CO)C7CC[C@@]6(C)[C@]4(C)CC5)[C@H](O)[C@@H](O)[C@@H]3O)O[C@@H]2CO)[C@H](O)[C@H](O)[C@H]1O (stereo partly drawn)", "normalized growth": 0.971}

Then this molecule:
Specify normalized growth for CC(=O)O[C@H]1CC[C@@]2(C)C(CC[C@]3(C)C2C(=O)C=C2C4[C@@H](C)[C@H](C)CC[C@]4(C(=O)O)CC[C@]23C)C1(C)C (stereo partly drawn) and stop.
0.989

====

# normalized growth listing for each entry below
- assay.text: chemical genetic growth profiling, strain panel (AID 1159580);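 also: tested at 20 µM; growth read once vehicle control cultures reached saturation at 30 °C; 1 = growth at the plate median or of vehicle wells; lower values mean less growth of the strain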
- test.conditions: S. cerevisiae deletion strains, growth OD, locus YBR171W, strain sec66, active compounds read low
The whole screen tested about 5,500 compounds, of which about 2,000 (36%) were called active. Inconclusive results (about 18%) are left out. This is one part of the list.
# output: bare number, no unit

{"molecule": "CC1(C)CC[C@]2(C(=O)O)CC[C@]3(C)C(=CCC4[C@@]5(C)CC[C@@H](O)C(C)(C)C5CC[C@]43C)C2C1 (stereo not given in full)", "result.number": 1.05}
{"molecule": "O=C(CNC(=O)c1ccc(Cl)cc1)NO", "result.number": 1.02}
{"molecule": "OC(CCN1CCCCC1)(c1ccccc1)C1CC2C=CC1C2 (stereo not given)", "result.number": 1}
{"molecule": "N=C(N)c1ccc(OCCCCCOc2ccc(C(=N)N)cc2)cc1", "result.number": 0.946}

Then there is this molecule:
State, in one line, measured normalized growth of CC1(C)CC[C@]2(C)CC[C@]3(C)C(=CCC4[C@@]5(C)CC[C@H](O)C(C)(C)C5CC[C@]43C)C2C1 (stereo not given in full)
0.993
